Test system: Plasmodium falciparum
Test: Antiplasmodial activity against chloroquine-resistant Plasmodium falciparum W2 infected in human erythrocytes after 48 hrs by flow cytometry
Assay type: functional, organism-based
Details: W2, 48 h
Would you mind telling me the reported pIC50 of each entry?
Note on pIC50: it is the negative log10 of concentration, concentration in mol/L.

Task: Give the value of pIC50 reported for the following: CCCCOc1c(NCCC(C)Nc2cc(OC)cc3cccnc23)c(=O)c1=O (stereo not drawn)
Result: 5.29

Task: Assign pIC50 to the following record: CCCCOc1c(NCCNc2cc(OC)cc3cccnc23)c(=O)c1=O
Result: 5.07

Task: Note pIC50 for the molecule shown: CCCCOc1c(NCCCNc2cc(OC)cc3cccnc23)c(=O)c1=O
Result: 5.29

Task: Name the recorded pIC50 of the molecule listed here: CCOc1c(NCCCC(C)Nc2cc(OC)cc3cccnc23)c(=O)c1=O (stereo not drawn)
Result: 5.14

###

Test system: Plasmodium falciparum
Test: Antiplasmodial activity against chloroquine-resistant Plasmodium falciparum W2 infected in human erythrocytes after 24 hrs by [3H]-hypoxanthine incorporation assay
Format: functional, organism-based
Measured Endpoint: pIC50
# reply with the number alone; pIC50 is -log10 of concentration in mol/L

Task: For Plasmodium falciparum, give pIC50 of the listed compound: COc1cc(NC(C)CCCN/C(C)=C2/CCOC2=O)c2ncccc2c1 (stereo unspecified)
Result: 5.80
